- Assay Comment: AUC in Sprague-Dawley rat at 20 mg/kg, po measured upto 24 hrs by LC/MS/MS analysis
- Type: ADME, organism-based
- Set-up: route oral, dose 20 mg/kg, time <=24
- Condition Summary: in vivo
Outcome Measure: AUC at 24 h (µM·h)
Unit µM·h implied. Number only.

{"Molecular String": "Nc1ncc(-c2cc3ccccc3s2)c(N2CCC3(CCNC3=O)CC2)c1Cl", "Measurement Units": "µM·h", "AUC at 24 h": 19.5}

// below: AUC at 24 h requested for another molecule
What the record says about Nc1ncc(-c2cc3ccccc3o2)c(N2CCC3(CCNC3=O)CC2)c1Cl : AUC at 24 h is 25.1

----------
Overview of reported Cmax across a group of compounds:
- Assay Comment: Cmax in BALB/c mouse at 2 mg/kg, iv measured upto 24 hrs by LC/MS/MS analysis
- Type: ADME, organism-based
- Set-up: route intravenous, dose 2 mg/kg, time <=24
- Condition Summary: in vivo
Unit µM implied. Number only.

{"Molecular String": "Nc1ncc(-c2cc3ccccc3s2)c(N2CCC3(CCNC3=O)CC2)c1Cl", "Test Value": 4.96}

// below: Cmax requested for another compound
What the record says about Nc1ncc(-c2cc3ccccc3o2)c(N2CCC3(CCNC3=O)CC2)c1Cl : Cmax is 4.16

----------
- Test Target: CDK8/Cyclin C (Homo sapiens, UniProt P49336)
- Sequence (P49336 whole entry): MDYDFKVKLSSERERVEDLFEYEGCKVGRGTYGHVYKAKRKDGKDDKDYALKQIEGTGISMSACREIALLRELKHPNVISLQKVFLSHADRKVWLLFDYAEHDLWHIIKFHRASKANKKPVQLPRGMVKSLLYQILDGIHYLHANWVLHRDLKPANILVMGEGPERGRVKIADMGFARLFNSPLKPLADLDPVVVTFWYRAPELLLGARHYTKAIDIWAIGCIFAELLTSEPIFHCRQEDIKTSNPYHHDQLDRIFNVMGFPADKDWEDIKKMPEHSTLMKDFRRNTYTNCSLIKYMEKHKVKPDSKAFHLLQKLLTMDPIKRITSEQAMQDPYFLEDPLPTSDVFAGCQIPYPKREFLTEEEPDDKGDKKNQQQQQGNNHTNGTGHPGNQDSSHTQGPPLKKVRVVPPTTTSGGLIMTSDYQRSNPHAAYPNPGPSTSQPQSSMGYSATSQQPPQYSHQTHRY
- Sequence (P24863 whole entry, further chain): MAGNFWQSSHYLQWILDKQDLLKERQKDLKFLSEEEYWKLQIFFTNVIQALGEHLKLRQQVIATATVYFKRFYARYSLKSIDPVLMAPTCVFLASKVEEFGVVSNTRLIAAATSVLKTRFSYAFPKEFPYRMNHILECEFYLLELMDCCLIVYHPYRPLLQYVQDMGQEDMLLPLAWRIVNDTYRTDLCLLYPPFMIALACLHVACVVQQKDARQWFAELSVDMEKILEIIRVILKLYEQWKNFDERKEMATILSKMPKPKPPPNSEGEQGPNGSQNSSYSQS
- Assay Comment: Inhibition of CDK8/Cyclin C (unknown origin) using RBER-CHKtide as substrate in presence of [33P]gammaATP incubated for 60 mins by microplate scintillation counter analysis
The label 1 is reserved for Ki strictly under 30 nM; -1 covers values equal to or above it.

Examples from the recorded data:
{"Molecular String": "O=C1NCCC12CCN(c1c(Cl)cncc1-c1ccc(Cl)s1)CC2", "Assigned Category": 1}
{"Molecular String": "Nc1ncc(-c2cc3ccccc3s2)c(N2CCC3(CCNC3=O)CC2)c1Cl", "Assigned Category": 1}
{"Molecular String": "O=C1NCCC12CCN(c1c(Cl)cncc1-c1ccc(CN3CCCCC3)s1)CC2", "Assigned Category": -1}
{"Molecular String": "O=C1NCCC12CCN(c1c(Cl)cncc1-c1ccc(CN3CCCC3)s1)CC2", "Assigned Category": -1}
{"Molecular String": "O=C1NCCC12CCN(c1c(Cl)cncc1-c1cnn(C(F)F)c1)CC2", "Assigned Category": -1}

Given the entry O=C1NCCC12CCN(c1c(Cl)cncc1-c1ccc(CN3CCOCC3)s1)CC2 , would its reported Ki be below 30 nM?
-1

Given the entry O=Cc1ccc(-c2cncc(Cl)c2N2CCC3(CCNC3=O)CC2)s1 , would its reported Ki be below 30 nM?
-1

Given the entry O=C1NCCC12CCN(c1c(Cl)cncc1-c1ccsc1)CC2 , would its reported Ki be below 30 nM?
1

----------
- Assay Comment: Oral bioavailability in Sprague-Dawley rat at 20 mg/kg measured upto 24 hrs by LC/MS/MS analysis
- Format: ADME, organism-based
- Condition Summary: in vivo
Outcome Measure: bioavailability (%)
Unit % implied. Number only.

{"Molecular String": "Nc1ncc(-c2cc3ccccc3s2)c(N2CCC3(CCNC3=O)CC2)c1Cl", "bioavailability (%)": 26}

What the record says about Nc1ncc(-c2cc3ccccc3o2)c(N2CCC3(CCNC3=O)CC2)c1Cl : bioavailability is 70
